# system.name: IKZF2 (Homo sapiens, UniProt Q96SW2+Q9UKS7)
# Sequence (Q9UKS7 1-500 isoform Q9UKS7-2): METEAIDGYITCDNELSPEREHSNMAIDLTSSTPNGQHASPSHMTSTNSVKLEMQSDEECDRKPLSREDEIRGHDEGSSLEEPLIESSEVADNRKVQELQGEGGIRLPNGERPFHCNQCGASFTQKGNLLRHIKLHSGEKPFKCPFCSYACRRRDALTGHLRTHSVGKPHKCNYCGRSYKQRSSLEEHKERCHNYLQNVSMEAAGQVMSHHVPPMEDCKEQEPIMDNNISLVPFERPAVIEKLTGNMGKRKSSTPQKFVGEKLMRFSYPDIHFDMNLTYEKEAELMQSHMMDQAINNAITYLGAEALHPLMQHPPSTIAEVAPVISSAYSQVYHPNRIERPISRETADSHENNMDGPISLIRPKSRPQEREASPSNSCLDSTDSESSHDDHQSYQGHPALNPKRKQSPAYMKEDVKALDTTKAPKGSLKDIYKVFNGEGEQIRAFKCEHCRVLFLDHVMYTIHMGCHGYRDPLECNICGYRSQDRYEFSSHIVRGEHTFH
# Sequence (Q96SW2 whole entry): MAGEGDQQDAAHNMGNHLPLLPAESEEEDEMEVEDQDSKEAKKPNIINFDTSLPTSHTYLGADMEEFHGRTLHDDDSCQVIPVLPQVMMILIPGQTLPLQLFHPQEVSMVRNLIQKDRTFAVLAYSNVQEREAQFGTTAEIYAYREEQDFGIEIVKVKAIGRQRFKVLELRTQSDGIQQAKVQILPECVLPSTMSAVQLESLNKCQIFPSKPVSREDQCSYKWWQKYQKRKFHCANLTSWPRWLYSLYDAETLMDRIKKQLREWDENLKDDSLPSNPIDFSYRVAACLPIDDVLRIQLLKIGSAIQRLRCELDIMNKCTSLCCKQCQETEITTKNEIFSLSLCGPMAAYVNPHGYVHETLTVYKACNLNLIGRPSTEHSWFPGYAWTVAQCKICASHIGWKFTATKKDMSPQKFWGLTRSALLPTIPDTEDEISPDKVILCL
# Sequence (Q16531 whole entry partner): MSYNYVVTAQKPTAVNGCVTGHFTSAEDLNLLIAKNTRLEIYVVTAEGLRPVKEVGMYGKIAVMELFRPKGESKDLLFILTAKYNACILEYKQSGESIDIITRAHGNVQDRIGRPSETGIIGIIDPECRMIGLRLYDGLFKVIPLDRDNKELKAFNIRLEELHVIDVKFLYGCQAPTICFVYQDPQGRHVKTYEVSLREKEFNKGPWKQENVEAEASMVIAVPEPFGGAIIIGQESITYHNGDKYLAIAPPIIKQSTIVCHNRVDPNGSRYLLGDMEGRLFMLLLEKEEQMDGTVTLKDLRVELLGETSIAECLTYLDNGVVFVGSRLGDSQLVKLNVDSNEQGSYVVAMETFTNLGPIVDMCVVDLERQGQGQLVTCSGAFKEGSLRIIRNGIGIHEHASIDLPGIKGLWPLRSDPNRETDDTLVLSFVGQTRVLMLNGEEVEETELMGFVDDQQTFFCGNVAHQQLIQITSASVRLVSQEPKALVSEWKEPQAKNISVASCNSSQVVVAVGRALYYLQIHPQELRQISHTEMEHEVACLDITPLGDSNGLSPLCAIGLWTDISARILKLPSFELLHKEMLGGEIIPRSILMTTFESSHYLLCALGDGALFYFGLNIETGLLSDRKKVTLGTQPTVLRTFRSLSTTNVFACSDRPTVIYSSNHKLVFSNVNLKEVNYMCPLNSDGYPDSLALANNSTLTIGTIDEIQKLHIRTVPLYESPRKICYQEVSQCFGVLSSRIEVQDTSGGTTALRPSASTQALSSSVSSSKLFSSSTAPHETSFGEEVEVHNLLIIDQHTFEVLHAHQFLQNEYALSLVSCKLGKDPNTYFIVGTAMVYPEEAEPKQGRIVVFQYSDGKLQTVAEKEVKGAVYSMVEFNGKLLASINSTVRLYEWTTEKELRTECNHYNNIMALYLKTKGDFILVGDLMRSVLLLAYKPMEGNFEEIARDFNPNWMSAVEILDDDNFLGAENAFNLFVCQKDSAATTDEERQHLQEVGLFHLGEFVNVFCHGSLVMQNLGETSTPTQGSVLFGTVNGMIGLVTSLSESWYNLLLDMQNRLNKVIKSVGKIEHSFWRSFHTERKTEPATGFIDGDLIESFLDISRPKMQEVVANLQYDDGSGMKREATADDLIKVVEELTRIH
# test.protocol: HEK293 HiBiT in vitro degradation of IKZF2
# Type: cell-based
# Design: expressed in transfected cells
# measurement.setup: HEK293 HiBiT; maximum degradation at the highest concentration tested
endpoint.label: IKZF2 Dmax (%)

molecule	endpoint.label	unit.tag	value.observed
CCC(N[C@H]1CCCC[C@@H]1Cc1ccc2c(c1)CN(C1CCC(=O)NC1=O)C2=O)C1CC1 (single isomer, unassigned) [Example 233]	IKZF2 Dmax	%	97
CC(N[C@H]1CCCC[C@@H]1Cc1ccc2c(c1)CN(C1CCC(=O)NC1=O)C2=O)C1(C)CCC1 (stereo partly shown) [Example 207]	IKZF2 Dmax	%	94
O=C1CCC(N2Cc3c(ccc(C[C@H]4CCCC[C@@H]4NC4CCOC4)c3F)C2=O)C(=O)N1 (stereo partly shown) [Example 189]	IKZF2 Dmax	%	97
O=C1CCC(N2Cc3c(ccc(C[C@H]4CCCC[C@@H]4NC4CCOCC4)c3F)C2=O)C(=O)N1 (stereo partly shown) [Example 188]	IKZF2 Dmax	%	98
O=C1CCC(N2Cc3c(ccc(C[C@H]4OCCC[C@@H]4NC4CCC(OC(F)F)CC4)c3F)C2=O)C(=O)N1 (single isomer, unassigned) [Example 327]	IKZF2 Dmax	%	96
O=C1CCC(N2Cc3cc(C[C@H]4CCCC[C@@H]4NC4CCc5c(C(F)(F)F)n[nH]c5C4)ccc3C2=O)C(=O)N1 (single isomer, unassigned) [Example 363]	IKZF2 Dmax	%	97
CCC(C)N[C@H]1CCCC[C@@H]1Cc1ccc2c(c1F)CN(C1CCC(=O)NC1=O)C2=O (single isomer, unassigned) [Example 295]	IKZF2 Dmax	%	97
CC(N[C@H]1CCCC[C@@H]1Cc1ccc2c(c1)CN(C1CCC(=O)NC1=O)C2=O)C(C)(C)F (single isomer, unassigned) [Example 227]	IKZF2 Dmax	%	86
O=C1CCC(N2Cc3c(ccc(C[C@H]4OCCC[C@@H]4NC4CCC5(CC4)CC5(F)F)c3F)C2=O)C(=O)N1 (single isomer, unassigned) [Example 365]	IKZF2 Dmax	%	95
CC1CCC(N[C@H]2CCCC[C@@H]2Cc2ccc3c(c2)CN(C2CCC(=O)NC2=O)C3=O)CC1 (single isomer, unassigned) [Example 280]	IKZF2 Dmax	%	98

====

# system.name: IKZF2 (Homo sapiens, UniProt Q96SW2+Q9UKS7)
# test.protocol: HEK293 HiBiT in vitro degradation of IKZF2
# Type: cell-based
# Design: expressed in transfected cells
# measurement.setup: HEK293 HiBiT, 18-24 hr incubation, normalized to DMSO control; read-out: IKZF2 EC50
endpoint.label: DC50 (nM)

compound	DC50 [nM]
CC(CF)N[C@H]1CCCC[C@@H]1Cc1ccc2c(c1)CN(C1CCC(=O)NC1=O)C2=O (stereo partly drawn)	15

a. O=C1CCC(N2Cc3cc(C[C@H]4CCCC[C@@H]4NC4CCC45COC5)ccc3C2=O)C(=O)N1 (single isomer, unassigned)
b. O=C1CC[C@H](N2Cc3c(ccc(C[C@H]4OCCC[C@@H]4N[C@H]4CC[C@H](C(F)F)CC4)c3F)C2=O)C(=O)N1 (single isomer, unassigned)
Looking only at measured DC50, which entry is lower, a or b ? Pick one; state its label.
b
